Assignment: determine reported Kd for the given binders.
target: T1, recombinant cynomolgus GPC3 (glypican-3) (cynomolgus monkey, UniProt A0A2K5VK50 24-558); assay: SPR (Biacore T200), antibody captured by anti-Fc, GPC3 injected, single-cycle kinetics, 1:1 fit; average
T1 construct: also called cynoGPC3
Just the number in nM, nothing appended.

Any idea what its Kd is? The binder is v40208, H18L6_LC_G34Q mAb (antibody, human IgG1, kappa, V domains shown) VH: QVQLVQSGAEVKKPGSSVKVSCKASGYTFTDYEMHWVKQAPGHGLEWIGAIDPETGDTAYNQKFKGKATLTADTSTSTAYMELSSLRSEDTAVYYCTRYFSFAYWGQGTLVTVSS VL: EIVLTQSPATLSLSPGERATISCRSSQSLRHSNQNTYLQWYQQKPGQAPRLLIYKVSNRFSGVPARFSGSGSGTDFTLTISSLEPEDFAVYFCYQSKHVPYTFGGGTKVEIKR
7.18

Now consider v40211, H18L6_LC_G34V mAb (antibody, human IgG1, kappa, V domains shown, no number given for this variant) VH: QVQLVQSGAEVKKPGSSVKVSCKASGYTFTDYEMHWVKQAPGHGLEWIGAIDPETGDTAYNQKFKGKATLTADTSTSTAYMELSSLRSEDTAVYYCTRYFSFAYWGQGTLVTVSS VL: EIVLTQSPATLSLSPGERATISCRSSQSLRHSNVNTYLQWYQQKPGQAPRLLIYKVSNRFSGVPARFSGSGSGTDFTLTISSLEPEDFAVYFCYQSKHVPYTFGGGTKVEIKR .
18.5

Now consider v40212, H18L6_LC_G34A mAb (antibody, human IgG1, kappa, V domains shown, no number given for this variant) VH: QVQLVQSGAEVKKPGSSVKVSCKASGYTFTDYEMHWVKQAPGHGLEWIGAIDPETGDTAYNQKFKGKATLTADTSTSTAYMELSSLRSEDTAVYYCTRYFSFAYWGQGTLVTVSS VL: EIVLTQSPATLSLSPGERATISCRSSQSLRHSNANTYLQWYQQKPGQAPRLLIYKVSNRFSGVPARFSGSGSGTDFTLTISSLEPEDFAVYFCYQSKHVPYTFGGGTKVEIKR .
7.78

Now consider v40218, H18L6_LC_N33H mAb (antibody, human IgG1, kappa, V domains shown, no number given for this variant) VH: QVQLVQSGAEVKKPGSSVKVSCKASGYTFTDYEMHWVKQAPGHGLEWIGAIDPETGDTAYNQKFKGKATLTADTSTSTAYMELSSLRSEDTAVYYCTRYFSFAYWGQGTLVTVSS VL: EIVLTQSPATLSLSPGERATISCRSSQSLRHSHGNTYLQWYQQKPGQAPRLLIYKVSNRFSGVPARFSGSGSGTDFTLTISSLEPEDFAVYFCYQSKHVPYTFGGGTKVEIKR .
9.57

Now consider v40215, H18L6_LC_N33V mAb (antibody, human IgG1, kappa, V domains shown, no number given for this variant) VH: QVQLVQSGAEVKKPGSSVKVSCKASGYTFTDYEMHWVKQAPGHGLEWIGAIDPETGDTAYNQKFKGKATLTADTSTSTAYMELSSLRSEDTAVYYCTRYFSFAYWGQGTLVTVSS VL: EIVLTQSPATLSLSPGERATISCRSSQSLRHSVGNTYLQWYQQKPGQAPRLLIYKVSNRFSGVPARFSGSGSGTDFTLTISSLEPEDFAVYFCYQSKHVPYTFGGGTKVEIKR .
17.8

Now consider v40207, H18L6_LC_G34K mAb (antibody, human IgG1, kappa, V domains shown) VH: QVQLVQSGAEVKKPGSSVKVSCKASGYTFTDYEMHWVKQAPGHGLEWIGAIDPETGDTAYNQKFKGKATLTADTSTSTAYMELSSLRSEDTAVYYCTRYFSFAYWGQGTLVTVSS VL: EIVLTQSPATLSLSPGERATISCRSSQSLRHSNKNTYLQWYQQKPGQAPRLLIYKVSNRFSGVPARFSGSGSGTDFTLTISSLEPEDFAVYFCYQSKHVPYTFGGGTKVEIKR .
7.29

Now consider v40221, H18L6_LC_N33S mAb (antibody, human IgG1, kappa, V domains shown, no number given for this variant) VH: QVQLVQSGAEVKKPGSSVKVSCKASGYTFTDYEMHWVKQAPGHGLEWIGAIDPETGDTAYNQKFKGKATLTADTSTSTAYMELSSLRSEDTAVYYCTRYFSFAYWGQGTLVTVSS VL: EIVLTQSPATLSLSPGERATISCRSSQSLRHSSGNTYLQWYQQKPGQAPRLLIYKVSNRFSGVPARFSGSGSGTDFTLTISSLEPEDFAVYFCYQSKHVPYTFGGGTKVEIKR .
15.8

Now consider v40204, H18L6_LC_G34E mAb (antibody, human IgG1, kappa, V domains shown, no number given for this variant) VH: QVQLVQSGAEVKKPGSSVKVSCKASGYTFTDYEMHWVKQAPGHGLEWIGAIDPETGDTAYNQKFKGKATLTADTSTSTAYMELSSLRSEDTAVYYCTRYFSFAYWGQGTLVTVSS VL: EIVLTQSPATLSLSPGERATISCRSSQSLRHSNENTYLQWYQQKPGQAPRLLIYKVSNRFSGVPARFSGSGSGTDFTLTISSLEPEDFAVYFCYQSKHVPYTFGGGTKVEIKR .
12.5

Now consider v40209, H18L6_LC_G34T mAb (antibody, human IgG1, kappa, V domains shown, no number given for this variant) VH: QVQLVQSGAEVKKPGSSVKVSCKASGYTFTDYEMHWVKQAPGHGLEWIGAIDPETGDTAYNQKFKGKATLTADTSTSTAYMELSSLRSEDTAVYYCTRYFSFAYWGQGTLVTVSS VL: EIVLTQSPATLSLSPGERATISCRSSQSLRHSNTNTYLQWYQQKPGQAPRLLIYKVSNRFSGVPARFSGSGSGTDFTLTISSLEPEDFAVYFCYQSKHVPYTFGGGTKVEIKR .
7.43

Now consider v40206, H18L6_LC_G34R mAb (antibody, human IgG1, kappa, V domains shown) VH: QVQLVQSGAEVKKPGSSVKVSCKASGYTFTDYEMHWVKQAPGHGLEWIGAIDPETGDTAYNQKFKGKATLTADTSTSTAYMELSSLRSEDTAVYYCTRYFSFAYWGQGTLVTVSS VL: EIVLTQSPATLSLSPGERATISCRSSQSLRHSNRNTYLQWYQQKPGQAPRLLIYKVSNRFSGVPARFSGSGSGTDFTLTISSLEPEDFAVYFCYQSKHVPYTFGGGTKVEIKR .
7.67

Data origin, for the record: patent US20250295799A1
